- measurement.notes: Clearance in mouse at 1 to 2 mg/kg, iv by LC/MS/MS analysis
- Format: ADME, organism-based
- settings: in vivo
Catalogue of compounds with associated clearance

{"compound": "COc1cc2c(Oc3ccc(NS(=O)(=O)c4cc(F)ccc4F)cc3F)ccnc2cc1OCCCN1CCN(C)CC1", "clearance [mL/min/kg]": 6.67}
{"compound": "COc1cc2c(Oc3ccc(NS(=O)(=O)c4cc(F)ccc4F)cc3F)ccnc2cc1OCCCN1CCCC(C)C1 (configuration not stated)", "clearance [mL/min/kg]": 11.7}

FYI, the data here is from ChEMBL document CHEMBL4371006.
